# assayTarget: recombinant human GREM1 (hGREM1-His; C-terminal 10His tagged, R&D, #5190-GR) (human) (UniProt O60565)
# Sequence (O60565 other isoform, or with tags, fused parts or gaps limits assumed, form in doubt): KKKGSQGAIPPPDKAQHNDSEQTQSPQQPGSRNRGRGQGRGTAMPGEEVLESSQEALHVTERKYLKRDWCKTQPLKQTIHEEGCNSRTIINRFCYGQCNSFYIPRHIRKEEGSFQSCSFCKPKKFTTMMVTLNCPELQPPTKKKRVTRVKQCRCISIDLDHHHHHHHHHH
# assayRemarks: cell-based or functional assay
Entries and their hGREM1-His Inhibition IC50, M; W-20-17 cell differentiation assay (alkaline phosphatase) values follow.
The reply should be a number in nM, with the unit left off.

Example entries begin here.
H4H6240P (antibody, human IgG4, V domains shown) VH: QVQLVESGGGVVQPGRSLRLSCAASGFTFSSYGMHWVRQAPGKGLEWVAVIWYDGSNKYYADSVKGRFIISRDNSKNMMYLQMNSLRAEDTAVYYCAREDNWNYAFDYWGQGTLVTVSS VL: EIVMTQSPATLSVSPGERATLSCRASQSISSNLAWYQQKPGQAPRLLIYDSSTRATGIPARFSGSGSGTQFTLTISSLQSEDFALYYCQQYSNWPPFTFGPGTKVDIK = 7.8
H4H6270P (antibody, human IgG4, V domains shown) VH: QVQLVESGGDVVQPGRSLRLSCAASGFTFSSYGMHWVRQAPGKGLEWVAIIWNDGSNKYYTDSVKGRFTISRDNSKNTLYLQMNGLRAEDTAIYYCARDQDQFDYWGQGTLVTVSS VL: EIVMTQSPATLSVSPGERATLSCRASQSISTNLAWYRQKPGQAPRLLIYDASTRATGIPARFSGSGSGTDFTLTISSLQSEDFAVYYCQQYSNWPPYTFGQGTKLEIK = 3.1
H4H2892N (antibody, human IgG4, V domains shown) VH: QVQLVESGGGVVQPGRSLRLSCAASGFTFSSYGIHWVRQAPGKGLEWVAILWYDGSNKYYADSVKGRFTISRDNSKTTLYLQMNSLRAEDTAVYYCARENYNDLNFDLWGRGTLVTVSS VL: DIQLTQSPSFLSASVGDRVTITCWASQGISSYLAWYQHKPGKAPKLLIYAASTLQSGVPSRFSGSGSGIEFTLTISSLQPEDFATYYCQQLKSYPPWTFGQGTKVEIR = 4.4
H4H2926N (antibody, human IgG4, V domains shown) VH: EVQLVESGGGLVQTGRSLRLSCAASGFTFDDYAMNWVRQAPGKGLEWVSGISWNSGNIGYADSVKGRFTISRDNAKNSLYLQMNSLRAEDTALYYCVKYIGQQLVQDYFDYWGQGTLVTVSS VL: DIQMTQSPSSLSASVGDRVTITCQASQDITNYLNWYQQRPGKAPKLLIYDAFNLERGVPSRFSGSGYGTYFTFTISSLQPEDIAIYYCQQYDNLPLTFGGGTKVEIE = 13

Please find the next binder below.
Data request: Return hGREM1-His Inhibition IC50, M; W-20-17 cell differentiation assay (alkaline phosphatase) (reported value) for this binder: H4H6260P (antibody, human IgG4, V domains shown) VH: QVQLVESGGGVVQPGRSLRLSCAASGFTFSTYGMHWVRQAPGKGLEWVAIIWYDGSNYYYADSVKGRFTISRDNSKNTLYLQMNSLRAEDTAVYYCAREDRNDVFDIWGQGTMVTVSS VL: EIVLTQSPATLSLSPGERATLSCRASQSVSSFLAWYQQKPGQAPRLLIYDSSNRATGIPARFSGSGSGTDFTLTISSLEPEDFAVYYCQQLSNWPPITFGQGTRLEIK
Data returned: 3.3
